All figures here come from ChEMBL document CHEMBL1127403.

Molecular target: Nitric oxide synthase 1 (Rattus norvegicus, UniProt P29476)
Sequence (P29476 whole entry): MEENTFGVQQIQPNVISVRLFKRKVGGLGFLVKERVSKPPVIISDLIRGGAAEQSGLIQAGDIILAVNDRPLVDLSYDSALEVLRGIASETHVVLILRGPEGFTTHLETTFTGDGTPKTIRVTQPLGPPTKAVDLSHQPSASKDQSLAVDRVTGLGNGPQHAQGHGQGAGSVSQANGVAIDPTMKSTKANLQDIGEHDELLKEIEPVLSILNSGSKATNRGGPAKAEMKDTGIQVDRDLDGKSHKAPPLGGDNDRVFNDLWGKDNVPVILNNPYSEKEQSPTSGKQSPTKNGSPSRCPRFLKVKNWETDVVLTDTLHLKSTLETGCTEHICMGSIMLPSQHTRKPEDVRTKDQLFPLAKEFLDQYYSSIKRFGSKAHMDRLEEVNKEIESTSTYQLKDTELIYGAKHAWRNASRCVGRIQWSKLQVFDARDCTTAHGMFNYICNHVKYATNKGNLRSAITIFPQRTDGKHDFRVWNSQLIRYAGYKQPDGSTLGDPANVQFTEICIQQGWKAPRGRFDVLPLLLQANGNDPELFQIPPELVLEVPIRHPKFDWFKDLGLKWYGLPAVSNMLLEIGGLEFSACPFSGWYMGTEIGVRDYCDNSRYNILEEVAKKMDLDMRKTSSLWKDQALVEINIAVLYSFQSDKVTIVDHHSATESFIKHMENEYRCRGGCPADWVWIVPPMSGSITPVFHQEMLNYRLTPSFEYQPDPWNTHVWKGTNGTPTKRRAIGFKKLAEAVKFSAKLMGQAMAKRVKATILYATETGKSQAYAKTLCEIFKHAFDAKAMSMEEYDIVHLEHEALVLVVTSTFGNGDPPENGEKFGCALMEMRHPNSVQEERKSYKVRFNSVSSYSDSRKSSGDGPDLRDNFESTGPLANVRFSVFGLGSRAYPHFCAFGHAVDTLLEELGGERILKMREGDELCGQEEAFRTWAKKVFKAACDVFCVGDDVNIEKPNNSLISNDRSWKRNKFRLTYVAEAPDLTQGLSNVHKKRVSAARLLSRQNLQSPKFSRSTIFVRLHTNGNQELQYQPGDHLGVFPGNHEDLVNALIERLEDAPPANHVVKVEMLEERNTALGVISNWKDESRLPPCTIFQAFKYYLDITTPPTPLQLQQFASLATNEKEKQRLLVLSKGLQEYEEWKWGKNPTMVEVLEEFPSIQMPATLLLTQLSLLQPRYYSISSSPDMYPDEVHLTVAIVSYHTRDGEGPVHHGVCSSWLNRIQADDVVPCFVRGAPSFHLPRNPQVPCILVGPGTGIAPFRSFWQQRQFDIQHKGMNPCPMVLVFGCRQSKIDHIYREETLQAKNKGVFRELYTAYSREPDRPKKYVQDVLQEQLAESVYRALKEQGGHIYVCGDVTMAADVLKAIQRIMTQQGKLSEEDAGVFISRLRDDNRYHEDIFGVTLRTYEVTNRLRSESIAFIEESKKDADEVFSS
measurement-label: pIC50
Just the number, please; pIC50 means minus log10 of the concentration in mol/L.

Challenge: Tell me measured pIC50 for CC(=N)NCCCCCC(N)C(=O)O (racemic) please.
Response given: 3.09

---

Assay system Nitric oxide synthase, inducible (Mus musculus); read-out recorded as IC50.
Kindly provide the numeric value in µM only, without the unit symbol.

Record excerpt, results attached:
[[record]]
compound = "N=C(NCCC[C@H](N)C(=O)O)N[N+](=O)[O-]"
numeric_value = 0.5

[[record]]
compound = "CC(=N)NCCCCCC(N)C(=O)O (racemic)"
numeric_value = 73


Kindly review the next compound as well.
Challenge: Tell me measured IC50 for `CC(=N)NCCCC[C@@H](N)C(=O)O` please.
Response given: 336
